Reference for the values: patent US20250145711A1

tested-system: T1, TRCW5 antigen (CD3δε-Fc-Avi) (biotinylated (site not stated))
T1 construct: also called recombinant CD3
T1 sequence (chain, as listed by the source mutant limits assumed): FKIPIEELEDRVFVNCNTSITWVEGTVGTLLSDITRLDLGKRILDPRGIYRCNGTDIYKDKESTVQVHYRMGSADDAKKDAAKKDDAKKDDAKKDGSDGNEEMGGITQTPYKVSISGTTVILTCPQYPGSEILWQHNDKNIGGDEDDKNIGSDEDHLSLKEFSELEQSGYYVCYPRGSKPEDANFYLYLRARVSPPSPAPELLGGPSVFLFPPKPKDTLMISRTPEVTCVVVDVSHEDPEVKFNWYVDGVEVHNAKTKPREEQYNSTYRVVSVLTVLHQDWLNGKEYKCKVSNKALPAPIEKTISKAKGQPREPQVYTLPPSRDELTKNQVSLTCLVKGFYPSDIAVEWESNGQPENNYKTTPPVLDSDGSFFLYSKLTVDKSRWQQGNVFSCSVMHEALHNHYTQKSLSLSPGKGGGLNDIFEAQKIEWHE
method-notes: ELISA after heat
Hi there, I'd appreciate the recorded % Retained 65° C. for every entry that follows.
Lab book: enter the figure in %, no units written.

Given the binder CD3B2028 (scFv) scFv: QVQLVQSGAEVKKPGSSVKVSCKASGYTFTRSTMHWVKQAPGQGLEWIGYINPSSAYTNYNQKFQGRVTLTADKSTSTAYMELSSLRSEDTAVYYCASPQVHYDYNGFPYWGQGTLVTVSSGGSEGKSSGSGSESKSTGGSEIVLTQSPATLSASPGERVTLSCSASSSVSYMNWYQQKPGTAPRRLIYDSSKLASGVPARFSGSGSGRDYTLTISSLEPEDFAVYYCQQWSRNPPTFGGGTKVEIK , what is its reported % Retained 65° C.? 15

Same question for CD3B2050 (scFv) scFv: QVQLVQSGAEVKKPGSSVKVSCKASGYTFTRSTMHWVKQAPGQGLEWMGYINPSSAYTNYNQKFQGRVTLTADKSTSTAYMELSSLRSEDTAVYYCASPQVHYDYNGFPYWGQGTLVTVSSGGSEGKSSGSGSESKSTGGSEIVLTQSPATLSASPGERVTLSCSASSSVSYMNWYQQKPGQSPRRLIYDSSKLASGVPARFSGSGSGRDYTLTISSLEPEDFAVYYCQQWSRNPPTFGGGTKVEIK please. 41
